Reported values of IC50 for individual entries
Target: Human TRPC6 (Homo sapiens)
Construct: expressed in transfected cells
Sequence (Q9Y210 whole entry): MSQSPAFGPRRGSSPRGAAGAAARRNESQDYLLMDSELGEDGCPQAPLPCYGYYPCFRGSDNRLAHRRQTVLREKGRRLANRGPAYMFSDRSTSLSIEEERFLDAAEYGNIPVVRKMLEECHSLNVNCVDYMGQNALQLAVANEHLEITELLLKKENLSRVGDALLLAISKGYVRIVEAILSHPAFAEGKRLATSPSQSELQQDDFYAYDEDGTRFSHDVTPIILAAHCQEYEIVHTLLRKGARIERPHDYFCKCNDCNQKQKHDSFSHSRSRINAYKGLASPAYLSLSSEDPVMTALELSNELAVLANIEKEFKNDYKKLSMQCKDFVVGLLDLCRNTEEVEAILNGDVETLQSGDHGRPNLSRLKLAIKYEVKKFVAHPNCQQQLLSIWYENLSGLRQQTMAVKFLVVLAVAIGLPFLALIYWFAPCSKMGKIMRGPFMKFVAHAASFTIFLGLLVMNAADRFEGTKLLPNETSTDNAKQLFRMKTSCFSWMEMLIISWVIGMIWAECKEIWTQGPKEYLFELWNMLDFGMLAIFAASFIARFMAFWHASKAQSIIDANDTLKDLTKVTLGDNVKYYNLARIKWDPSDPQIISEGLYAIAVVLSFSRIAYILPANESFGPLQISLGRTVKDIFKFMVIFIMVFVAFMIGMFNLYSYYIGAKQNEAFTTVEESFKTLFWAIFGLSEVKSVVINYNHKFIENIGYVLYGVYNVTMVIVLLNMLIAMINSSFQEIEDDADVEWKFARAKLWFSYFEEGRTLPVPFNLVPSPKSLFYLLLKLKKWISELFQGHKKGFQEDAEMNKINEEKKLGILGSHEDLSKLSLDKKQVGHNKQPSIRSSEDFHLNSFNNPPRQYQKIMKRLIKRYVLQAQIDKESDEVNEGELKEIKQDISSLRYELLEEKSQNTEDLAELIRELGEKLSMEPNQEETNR
Test: Evaluation of TRPC6 channel inhibitory activity (2), HEK293 cells with stably introduced human TRPC6, OAG stimulation, FLIPR tetra (Compound Nos. 1293 to 1405)
Format: cell-based
Settings: HEK293 cells with stably introduced human TRPC6, OAG 50 μM/0.5% DMSO, read-out: Inhibitory activity (pIC50 class) (converted)
Protocol: Evaluation of TRPC6 Channel Inhibitory Activity (2) (Compound Nos. 1293 to 1405) The activity of the TRPC6 inhibitor was measured by stimulating HEK293 cells, in which human TRPC6 was stably introduced, with OAG (1-Oleoyl-2-acetyl-sn-glycerol, Miliipore Sigma, 06754), using the FLIPR tetra system. […] A volume of 12.5 μL of OAG solution was added, and activation of TRPC6 channel was measured using the FLIPR tetra system assaying the change in intracellular calcium level as an index. […]

Input line: Quick check: IC50 of Cc1nc(Oc2cc(Cl)ccc2-c2ncc([C@H](O)CN)cn2)cc(N2CCOCC2)n1 ?
Output line: 10 to 1000 nM

Input line: May I ask what IC50 has been recorded for Cc1cc(Oc2cc(C#N)ccc2-c2ncc(CN)cn2)nc(N2CCOCC2)n1 ?
Output line: 10 to 1000 nM

Input line: Give the measured IC50 of Cc1cc(Oc2nc(Cl)ccc2-c2ccc(CCN)cc2)cc(N2CCOCC2)n1 .
Output line: > 1000 nM

Input line: Given the compound Cc1cc(Oc2cc(Cl)ccc2-c2ncc([C@H](F)CN)cn2)cc(N2CCOCC2)n1 , what is its reported IC50?
Output line: < 10 nM

Input line: I have this compound here, Cn1nc(-c2ccccn2)cc1Oc1cc(F)ccc1-c1ncc([C@H](F)CN)cn1 , and I need its recorded IC50.
Output line: < 10 nM

More entries:
Input line: Need IC50, item Cn1nc(-c2ccccn2)cc1Oc1cc(Cl)ccc1-c1ncc(CN)cn1
Output line: < 10 nM

From: patent US20230167073A1
